Listed sequences paired with reported PBM binding z-score
- Tested on: THRa homodimer (NR concentration 90 nM)
- measurementNotes: PBM binding z-score (relative to random genomic background probes); higher = stronger binding; sequences stand for … in GC…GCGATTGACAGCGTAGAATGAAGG
measureName: PBM binding z-score

> print(dat)
                         querysequence                                 testedon          measurename   result
 1  AGTCAAAGTTCACTAGGTAACTTAAGATTCAGCT  THRa homodimer (NR concentration 90 nM)  PBM binding z-score    0.269
 2  TGTCAAAGTTCAAAGGTAATGTAAGTATCCACAC  THRa homodimer (NR concentration 90 nM)  PBM binding z-score   -0.177
 3  ACTAGTTGGTTAGCTGAGGTCACACACAATTCGG  THRa homodimer (NR concentration 90 nM)  PBM binding z-score     5.36
 4  CTACCAAGGTGATCAAGGTCGTTGATTACTATTC  THRa homodimer (NR concentration 90 nM)  PBM binding z-score     1.55
 5  TTACCAAGCTGAAAGGTCGTTGATGCACGCCTTG  THRa homodimer (NR concentration 90 nM)  PBM binding z-score   -0.608
 6  ATCGAAAGCTCGACGAGGTGAGTATACACCGTTT  THRa homodimer (NR concentration 90 nM)  PBM binding z-score    0.249
 7  CATCCAGGGTCAGCTAGGCCAGAGTAGGGACGGC  THRa homodimer (NR concentration 90 nM)  PBM binding z-score     1.34
 8  TCATATAGGTAAAAGCTGAAAGTCGGTGTGGTAA  THRa homodimer (NR concentration 90 nM)  PBM binding z-score   -0.715
 9  TAGCCTAGGTCATTGGGCCAGTTTAGTACGCATC  THRa homodimer (NR concentration 90 nM)  PBM binding z-score        1
10  CCGCCTGGGGCAGAAAGGTTACCATACCATCCGG  THRa homodimer (NR concentration 90 nM)  PBM binding z-score   -0.231
11  TAGCCTAGGTCATGGGGCCAGTATAGTACGCATC  THRa homodimer (NR concentration 90 nM)  PBM binding z-score     1.43
12  TCAGACAGGTGAAGGTAATTCAGGTACGCAGTCG  THRa homodimer (NR concentration 90 nM)  PBM binding z-score    0.574
13  TAATATAGGTAAATGCTAGGTGAAAGTCCGATCT  THRa homodimer (NR concentration 90 nM)  PBM binding z-score    0.419
14  TCGAGTAGGTAACCAATGGGGCATTCAGCTTTCT  THRa homodimer (NR concentration 90 nM)  PBM binding z-score   -0.752
15  TCATATAGGAAAAGGTGAAAGTCGAACGATATGA  THRa homodimer (NR concentration 90 nM)  PBM binding z-score   -0.616
16  TCATATAGGTAAAAAGTGAAAGTCGGTGTGGTAA  THRa homodimer (NR concentration 90 nM)  PBM binding z-score   -0.132
17  TCTTCTAGATCAAAGGTTAAGAAAGCCGAAGCCT  THRa homodimer (NR concentration 90 nM)  PBM binding z-score   -0.597
18  GCTAGCAGGCCCTTTGGGTCACTCAATGACGGGC  THRa homodimer (NR concentration 90 nM)  PBM binding z-score     0.25
19  TCTTGTAGATCAAAGGTTAAGCAAGCCGAAGCCT  THRa homodimer (NR concentration 90 nM)  PBM binding z-score   -0.503
20  TGAAAGAGGTTATAAGATCAGGGAACGTTGCAAA  THRa homodimer (NR concentration 90 nM)  PBM binding z-score   -0.921
21  CCTTACGGGTCACTGACAGGATATAGCATTTGGA  THRa homodimer (NR concentration 90 nM)  PBM binding z-score    0.268
22  ACTTACGGGTCAACGAGGTGATAGCACGCGTATA  THRa homodimer (NR concentration 90 nM)  PBM binding z-score    0.952
23  ATATGTAGATTAGCTGGGGTCATTCAGACTAGGC  THRa homodimer (NR concentration 90 nM)  PBM binding z-score     3.01
24  ATAAGTAGGTTAGCTGGGGTCATTCAGACTAGGC  THRa homodimer (NR concentration 90 nM)  PBM binding z-score     3.54
25  CCGACTGGGGCAAAGGTTACCCTACTCAGTACGA  THRa homodimer (NR concentration 90 nM)  PBM binding z-score    0.249
26  GAAACAGGGTCAAGGCCAGAGTACGCGTATTGAT  THRa homodimer (NR concentration 90 nM)  PBM binding z-score     1.44
27  TCAGACAGGGGAAGGTAACTCAGGTACGCAGTCG  THRa homodimer (NR concentration 90 nM)  PBM binding z-score     1.02
28  ATCTCTAGGTAACCAAATTCAGTGAATGCCGAAC  THRa homodimer (NR concentration 90 nM)  PBM binding z-score    0.778
29  CCTACTGGGCAATCAGGTCATTGATATCAACGTT  THRa homodimer (NR concentration 90 nM)  PBM binding z-score     2.55
30  CCTACTGGGCCAACGGTCATTGATTCCAATGCTC  THRa homodimer (NR concentration 90 nM)  PBM binding z-score   -0.382
31  TAGCCTAGGTGATTCAGGGGCCAGTATAGAAAGC  THRa homodimer (NR concentration 90 nM)  PBM binding z-score  -0.0483
32  ACTAGCAGGCCACGGGTCACTCAAGATTAGTCCG  THRa homodimer (NR concentration 90 nM)  PBM binding z-score    0.298
33  GCGACTGGGGCAAACCAGGTTACCATAAGGTTGG  THRa homodimer (NR concentration 90 nM)  PBM binding z-score    0.684
34  GGAACGAGGGCAAAGTTGACAGCATCTGTCGACG  THRa homodimer (NR concentration 90 nM)  PBM binding z-score   -0.266
35  CCGAGTAAGTTATGGGGCATTCAGGCAACGGTGA  THRa homodimer (NR concentration 90 nM)  PBM binding z-score   -0.117
36  GCTGCTAGGTCAACTGATGGTCTGCTAAAGCTCG  THRa homodimer (NR concentration 90 nM)  PBM binding z-score     1.02
37  TCATATAGGTAAAGGTGAATGTCGAACGATATGA  THRa homodimer (NR concentration 90 nM)  PBM binding z-score   -0.293
38  CCGACTGGTGCATAAGGTTACCATAAGCCAGCCC  THRa homodimer (NR concentration 90 nM)  PBM binding z-score     1.58
39  AGAAGGAGGGCAATGAGTTGATAGCACGGGTGGC  THRa homodimer (NR concentration 90 nM)  PBM binding z-score    0.339
40  TCTATTAATTGAAGGGCAACCGACGAGTCCGTTT  THRa homodimer (NR concentration 90 nM)  PBM binding z-score    0.559
41  TGAATGAGGTTAAAGATCAGGGTACGTGGCGTCG  THRa homodimer (NR concentration 90 nM)  PBM binding z-score    0.878
42  CGAACTAGGTCAGAACAGGATAGTGAAGGATGAT  THRa homodimer (NR concentration 90 nM)  PBM binding z-score    0.235
43  TCGAGTAGGTTAGTCGGGGCATTCCGCCAACATA  THRa homodimer (NR concentration 90 nM)  PBM binding z-score   -0.473
44  ATCGAAAGGTCGAGATGAGTATAGAGAAAGGGAA  THRa homodimer (NR concentration 90 nM)  PBM binding z-score   -0.434
45  GCGACTGGGGCATCAACAGGTTACCATAACTTAA  THRa homodimer (NR concentration 90 nM)  PBM binding z-score  -0.0396
46  GCTATTAGTTGAAAGGGCAACCTAATGATTCTCG  THRa homodimer (NR concentration 90 nM)  PBM binding z-score  -0.0101
47  TCTAGCAGGCCAGAGGGTCACTCATGAGGTACGG  THRa homodimer (NR concentration 90 nM)  PBM binding z-score   -0.102
48  ATCTCTAGGTATGACTCAGTTCAGTGAAGAACGC  THRa homodimer (NR concentration 90 nM)  PBM binding z-score     0.83
49  ACCGAAAGGTCGACGAGGTGAGTATACACCGTTT  THRa homodimer (NR concentration 90 nM)  PBM binding z-score    0.645
50  GGAACGAGGGCATTCGAGTTGATATCATGGCGAT  THRa homodimer (NR concentration 90 nM)  PBM binding z-score   -0.359
51  TCTTGTAGATCAAGCAGGTTAAGAGAGCCTGAGT  THRa homodimer (NR concentration 90 nM)  PBM binding z-score   -0.531
